system: MKN-45; experiment: Cell viability, CellTiterGlo, 72 hours; type: cell-based; conditions: Homo sapiens, MKN-45 cells, Stomach
measured_metric: IC50 (µM)

>>> quantitative_readout("O=C(NC1CCN(CCCCC2(C(=O)NCC(F)(F)F)c3ccccc3-c3ccccc32)CC1)c1ccccc1-c1ccc(C(F)(F)F)cc1 [lomitapide]")
3.9

====

test system: SK-OV3; assay: Cell viability, CellTiterGlo, 72 hours; type: cell-based; settings: Homo sapiens, SK-OV-3, SK-OV3 cells, Ovary
measured_metric: IC50

>>> result("O=C(NC1CCN(CCCCC2(C(=O)NCC(F)(F)F)c3ccccc3-c3ccccc32)CC1)c1ccccc1-c1ccc(C(F)(F)F)cc1 [lomitapide]")
"3.3 µM"
